molecular target: Adrenergic receptor beta (Rattus norvegicus) (UniProt P18090+P10608+P26255); test: Agonist activity at beta-adrenergic receptor in rat airway smooth muscle cells assessed as reduction in acetylcholine-induced muscle contractions by measuring cAMP levels after 18 hrs post acetylcholine stimulation by ELISA (reference value: 8.402 +/- 0.041 nmol/l); assay type: functional
Entries and their Activity values follow.
reported-endpoint: Activity (nmol/L)

compound="CCN(CC)CC(=O)OC(C)(C)C1CC=C(C)CC1 (centres undefined)" target_of_assay="Adrenergic receptor beta (Rattus norvegicus) (UniProt P18090+P10608+P26255)" unit_string=nmol/L recorded_number=9.53
compound="CC1=CCC(C(C)(C)OC(=O)CSCCO)CC1 (centres undefined)" target_of_assay="Adrenergic receptor beta (Rattus norvegicus) (UniProt P18090+P10608+P26255)" unit_string=nmol/L recorded_number=8.82
compound="CC1=CCC(C(C)(C)OC(=O)CN2CCC(O)CC2)CC1 (centres undefined)" target_of_assay="Adrenergic receptor beta (Rattus norvegicus) (UniProt P18090+P10608+P26255)" unit_string=nmol/L recorded_number=8.98
compound="CC1=CCC(C(C)(C)O)CC1 (centres undefined)" target_of_assay="Adrenergic receptor beta (Rattus norvegicus) (UniProt P18090+P10608+P26255)" unit_string=nmol/L recorded_number=8.51
compound="CC1=CCC(C(C)(C)OC(=O)CN(CCO)CCO)CC1 (centres undefined)" target_of_assay="Adrenergic receptor beta (Rattus norvegicus) (UniProt P18090+P10608+P26255)" unit_string=nmol/L recorded_number=8.94
compound="CC1=CCC(C(C)(C)OC(=O)CN(C)CCO)CC1 (centres undefined)" target_of_assay="Adrenergic receptor beta (Rattus norvegicus) (UniProt P18090+P10608+P26255)" unit_string=nmol/L recorded_number=9.01
compound="CC1=CCC(C(C)(C)OC(=O)CSCC(O)CO)CC1 (centres undefined)" target_of_assay="Adrenergic receptor beta (Rattus norvegicus) (UniProt P18090+P10608+P26255)" unit_string=nmol/L recorded_number=8.76
compound="CC1=CCC(C(C)(C)OC(=O)CN2CCOCC2)CC1 (centres undefined)" target_of_assay="Adrenergic receptor beta (Rattus norvegicus) (UniProt P18090+P10608+P26255)" unit_string=nmol/L recorded_number=8.81
compound=Cn1c(=O)c2[nH]cnc2n(C)c1=O target_of_assay="Adrenergic receptor beta (Rattus norvegicus) (UniProt P18090+P10608+P26255)" unit_string=nmol/L recorded_number=8.6

FYI, the data here is from ChEMBL document CHEMBL4138217.
